The origin of these recorded values is the supplement of paper PMC10567573.

Reported protein stability index values are given for each entry in this list.
B1: TRAF3IP2 (parent)
chain: APWNYHYHCPGSPDHQVPYGHDYP

variants of: B1; experiment: protein stability index of a GFP-peptide fusion (GPS, HEK-293T) (PSI 1-6); higher = more stable; details: c terminus: a fixed tail appended;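 also: lentivirally expressed fusions sorted by FACS into six bins by GFP to DsRed ratio, PSI derived from sequencing read proportions per bin multiplied by bin number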
MEASUREMENT LABEL: protein stability index

>>> df
    mutant_label        measurement_label  measured_number
 0          P10V  protein stability index             2.09
 1           N4V  protein stability index             2.12
 2          P18F  protein stability index             2.23
 3           H8Y  protein stability index             1.84
 4           H8R  protein stability index             1.66
 5          Q16L  protein stability index             1.89
 6           Y7K  protein stability index             2.91
 7          P18I  protein stability index             1.93
 8           C9N  protein stability index             2.17
 9          Q16G  protein stability index             1.81
10          Y23F  protein stability index                2
